- Test system: Escherichia coli TOP10
- assay-info: shrunken log2 fold change of peptide-encoding DNA abundance (4.5 h post-induction vs induction); higher = less antimicrobial activity (less host growth inhibition)
- test-parameters: time post-induction: 4.5 h; library: site-saturation at positions 5, 18, 19, 20
Use rule met when the recorded shrunken log2 fold change is no lower than -0.03; use rule not met when it is lower.

| record-sequence | category |
| --- | --- |
| RRIRYRPPRLPRPRPRPQRTPRP | rule not met |

Please tell me: is the sequence "RRIRYRPPRLPRPRPRPPPHPRP" at or over -0.03 in terms of shrunken log2 fold change? rule met

Please check the record "RRIRERPPRLPRPRPRPASSPRP" and state if its shrunken log2 fold change is at or above -0.03. rule met

Is shrunken log2 fold change at least -0.03? Consider "RRIRKRPPRLPRPRPRPRGTPRP" rule met

Does the reported shrunken log2 fold change for "RRIRVRPPRLPRPRPRPARIPRP" fall at or above the -0.03 mark? rule met

Check this sequence for shrunken log2 fold change at or above -0.03: "RRIRNRPPRLPRPRPRPIAAPRP" rule met

Answer whether shrunken log2 fold change of "RRIRCRPPRLPRPRPRPINDPRP" is greater than or equal to -0.03. rule not met

Textbook exercise: given the entry "RRIRCRPPRLPRPRPRPEQYPRP" , state whether its shrunken log2 fold change is greater than or equal to -0.03. rule not met

Could you tell me if the measured shrunken log2 fold change of "RRIRNRPPRLPRPRPRPHNFPRP" reaches -0.03 or more? rule not met

I'd appreciate it if you could say whether "RRIRVRPPRLPRPRPRPHKAPRP" has shrunken log2 fold change at least equal to -0.03. rule met

Is shrunken log2 fold change for "RRIRNRPPRLPRPRPRPVMHPRP" at or above -0.03? rule met

Decide: shrunken log2 fold change of "RRIRCRPPRLPRPRPRPAQSPRP" >= -0.03? rule met

// inclusive: shrunken log2 fold change at least -0.03? input: "RRIRRRPPRLPRPRPRPKPNPRP" rule met

Test whether the sequence "RRIRCRPPRLPRPRPRPDDHPRP" records shrunken log2 fold change of -0.03 or higher. rule not met

# bool: shrunken log2 fold change of "RRIRIRPPRLPRPRPRPVGYPRP" >= -0.03 rule met

Check this sequence for shrunken log2 fold change at or above -0.03: "RRIRLRPPRLPRPRPRPSKEPRP" rule not met

# check: shrunken log2 fold change of "RRIRCRPPRLPRPRPRPSGEPRP" is greater than or equal to -0.03 rule met

I'd appreciate it if you could say whether "RRIRERPPRLPRPRPRPCGEPRP" has shrunken log2 fold change at least equal to -0.03. rule not met

----------
- Tested on: Escherichia coli TOP10
- assay-info: shrunken log2 fold change of peptide-encoding DNA abundance (4.5 h post-induction vs induction); higher = less antimicrobial activity (less host growth inhibition)
- test-parameters: time post-induction: 4.5 h; library: site-saturation at positions 5, 18, 19, 20
Decide using shrunken log2 fold change: a value greater than or equal to -0.1 is condition met, a smaller one is condition not met.

Kindly determine if shrunken log2 fold change recorded for "RRIRARPPRLPRPRPRPNDCPRP" is above or exactly -0.1. condition met

----------
- System: Escherichia coli TOP10;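 further: peptides expressed intracellularly from a pBAD plasmid library in pooled LB shake-flask culture, induced with 0.3% L-arabinose, DNA abundance read by NGS, three biological replicates, DESeq2 with apeglm shrinkage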
- assay-info: shrunken log2 fold change of peptide-encoding DNA abundance (4.5 h post-induction vs induction); higher = less antimicrobial activity (less host growth inhibition)
- test-parameters: time post-induction: 4.5 h; library: site-saturation at positions 5, 18, 19, 20
Output Y for shrunken log2 fold change not less than -0.04; output N otherwise.

| record-sequence | category |
| --- | --- |
| RRIRPRPPRLPRPRPRPHFFPRP | Y |
| RRIRSRPPRLPRPRPRPWCMPRP | N |

Dear colleague, could you confirm whether "RRIRGRPPRLPRPRPRPDTLPRP" has shrunken log2 fold change at or above -0.04? Y

Does the sequence "RRIRCRPPRLPRPRPRPHCDPRP" have recorded shrunken log2 fold change that is -0.04 or more? N

Reported shrunken log2 fold change reaches at least -0.04 for "RRIRERPPRLPRPRPRPYDPPRP" ? N

Could you verify whether the entry "RRIRGRPPRLPRPRPRPHRKPRP" shows shrunken log2 fold change of no less than -0.04? Y
